condition-parameters: in chloroform, 326.71 K
recorded-metric: solubility (mole fraction)
Numbers only.

// "O=[N+]([O-])/N=C1\NCCN1Cc1ccc(Cl)nc1" : solubility (mole fraction) value = 0.0215

----------
condition-parameters: in chloroform, 298.22 K
recorded-metric: solubility (mole fraction)
Give bare numbers.

// "O=[N+]([O-])/N=C1\NCCN1Cc1ccc(Cl)nc1" : solubility (mole fraction) value = 0.0102

----------
condition-parameters: in 2-butanone, 306.3 K
recorded-metric: solubility (mole fraction)

// "O=[N+]([O-])/N=C1\NCCN1Cc1ccc(Cl)nc1" : solubility (mole fraction) value = 0.0238

----------
condition-parameters: in water, 334.52 K
recorded-metric: solubility (mole fraction)

// "O=[N+]([O-])/N=C1\NCCN1Cc1ccc(Cl)nc1" : solubility (mole fraction) value = 0.000169
